Biological target: human arginase I (ARG I) (Homo sapiens, UniProt P05089)
Sequence (P05089 whole entry): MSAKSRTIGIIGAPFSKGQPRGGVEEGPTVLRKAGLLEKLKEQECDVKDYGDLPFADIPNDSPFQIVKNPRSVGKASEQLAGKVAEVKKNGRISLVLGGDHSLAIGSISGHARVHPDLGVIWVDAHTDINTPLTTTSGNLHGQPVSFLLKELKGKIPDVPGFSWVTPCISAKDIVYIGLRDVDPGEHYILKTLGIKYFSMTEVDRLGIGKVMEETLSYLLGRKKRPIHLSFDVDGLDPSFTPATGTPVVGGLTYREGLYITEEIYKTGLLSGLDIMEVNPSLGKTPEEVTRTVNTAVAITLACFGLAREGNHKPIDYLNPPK
Assay: Inhibition of arginase I, spectrophotometric urea assay at 530 nm
Format: biochemical
Conditions: Formula II compounds, Table 2-A; read-out: Potency (ARG I)
Protocol: The assay established the concentration of inhibitor that is required to reduce arginase activity by 50% (IC50). Inhibition of arginase I (ARG I) and arginase II (ARG II) by Formula I and Formula II compounds is followed spectrophotometrically at 530 nm. The compound to be tested is dissolved in DMSO at an initial concentration 50-fold greater than its final concentration in the cuvette. […]
Where a name gives a salt, the structure may show the parent alone.
property.label: IC50

compound	target.system	result
NC(CCCCB(O)O)(C(=O)O)C1CCN(Cc2ccc(C(F)(F)F)cc2)CC1 (centres unmarked)	human arginase I (ARG I) (Homo sapiens, UniProt P05089)	251 to 1000 nM
NC(CCCCB(O)O)(C(=O)O)C1CCN(C2CCCCC2)CC1 (centres unmarked) [23-A, dihydrochloride]	human arginase I (ARG I) (Homo sapiens, UniProt P05089)	251 to 1000 nM
NC(CCCCB(O)O)(C(=O)O)C1CCN(C(=O)Nc2ccc(Cl)c(Cl)c2)CC1 (centres unmarked)	human arginase I (ARG I) (Homo sapiens, UniProt P05089)	251 to 1000 nM
NC(CCCCB(O)O)(C(=O)O)C1CCN(CCCc2ccc(Cl)cc2)CC1 (centres unmarked)	human arginase I (ARG I) (Homo sapiens, UniProt P05089)	0.1 to 250 nM
NC(CCCCB(O)O)(C(=O)O)C1CCN(C(=S)Nc2cccc3ccccc23)CC1 (centres unmarked)	human arginase I (ARG I) (Homo sapiens, UniProt P05089)	251 to 1000 nM
NC(CCCCB(O)O)(C(=O)O)C1CCN(Cc2ccc(Cl)c(F)c2)CC1 (centres unmarked)	human arginase I (ARG I) (Homo sapiens, UniProt P05089)	251 to 1000 nM
NC(CCCCB(O)O)(C(=O)O)[C@@H]1CC(=O)N(c2ccc(Cl)cc2)C1 (some centres unmarked) [14-A, hydrochloride]	human arginase I (ARG I) (Homo sapiens, UniProt P05089)	2000 to 5000 nM
NC(CCCCB(O)O)(C(=O)O)C1CCN(Cc2ccccc2-c2ccccc2)CC1 (centres unmarked) [Example 55-A, dihydrochloride]	human arginase I (ARG I) (Homo sapiens, UniProt P05089)	0.1 to 250 nM
CC(=O)N1CCC(C(N)(CCCCB(O)O)C(=O)O)CC1 (centres unmarked) [27-A, hydrochloride]	human arginase I (ARG I) (Homo sapiens, UniProt P05089)	2000 to 5000 nM
NC(CCCCB(O)O)(C(=O)O)C1CCCNCC1 (centres unmarked) [Example 72-A, dihydrochloride]	human arginase I (ARG I) (Homo sapiens, UniProt P05089)	0.1 to 250 nM
Cc1cc(C(F)(F)F)cc(N2CCC(C(N)(CCCCB(O)O)C(=O)O)CC2)n1 (centres unmarked)	human arginase I (ARG I) (Homo sapiens, UniProt P05089)	1000 to 2000 nM

---

Molecular target: arginase II (ARG II) (Homo sapiens, UniProt P78540)
Sequence (P78540 23-354): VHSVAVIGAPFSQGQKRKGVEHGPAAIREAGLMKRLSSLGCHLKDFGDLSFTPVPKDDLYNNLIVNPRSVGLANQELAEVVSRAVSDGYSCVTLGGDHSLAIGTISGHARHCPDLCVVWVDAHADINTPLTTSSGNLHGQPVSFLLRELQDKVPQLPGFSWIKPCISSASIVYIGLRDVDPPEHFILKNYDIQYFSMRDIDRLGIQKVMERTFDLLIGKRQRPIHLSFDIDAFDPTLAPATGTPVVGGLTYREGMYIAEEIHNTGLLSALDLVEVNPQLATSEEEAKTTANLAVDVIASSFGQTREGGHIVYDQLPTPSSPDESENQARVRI
Test: Inhibition of arginase II, spectrophotometric urea assay at 530 nm
Type: biochemical
Settings: Formula I compounds, Table 2; read-out: Potency (ARG II)
Structures can show the parent of a compound that is named as a salt.
property.label: IC50

molecule	result
CC(CC(N)(CCCCB(O)O)C(=O)O)N1CCC(Cc2ccccc2)CC1 (stereo not shown) [compound 124, dihydrochloride]	2000 to 5000 nM
NC(CCCCB(O)O)(CCN1CCC[C@@H]1C(F)(F)F)C(=O)O (stereo partly shown) [compound 46, dihydrochloride]	> 5000 nM
NC(CCCCB(O)O)(CCNCCCc1ccc(Cl)cc1Cl)C(=O)O (stereo not shown) [compound 66, dihydrochloride]	0.1 to 250 nM
N[C@](CCCCB(O)O)(CCN1CCC(CCO)CC1)C(=O)O [compound 9, dihydrochloride]	251 to 1000 nM
NC(CCCCB(O)O)(CCN1CCCCC1C(=O)O)C(=O)O (stereo not shown) [compound 52, dihydrochloride]	2000 to 5000 nM
COc1ccc(CN(C)CCC(N)(CCCCB(O)O)C(=O)O)cc1 (stereo not shown) [compound 27, dihydrochloride]	1000 to 2000 nM
NC(CCCCB(O)O)(CCOc1ccc(Cl)cc1)C(=O)O (stereo not shown) [compound 92, hydrochloride]	> 5000 nM
NC(CCCCB(O)O)(CCNC1Cc2ccccc2C1)C(=O)O (stereo not shown) [compound 58, dihydrochloride]	0.1 to 250 nM
NC(CCCCB(O)O)(CCN1CCNCC1)C(=O)O (stereo not shown) [compound 32, trihydrochloride]	2000 to 5000 nM
NC(CCCCB(O)O)(CCN1CCC[C@H](C(=O)O)C1)C(=O)O (stereo partly shown) [compound 56, dihydrochloride]	2000 to 5000 nM
CC(C)NCCC(N)(CCCCB(O)O)C(=O)O (stereo not shown) [compound 55, dihydrochloride]	251 to 1000 nM
NC(CCCCB(O)O)(CCN1CC(O)C1)C(=O)O (stereo not shown) [compound 59, dihydrochloride]	2000 to 5000 nM
NC(CCCCB(O)O)(CN1CCOCC1)C(=O)O (stereo not shown) [compound 81, dihydrochloride]	> 5000 nM
CC(C)n1cncc1CC(N)(CCCCB(O)O)C(=O)O (stereo not shown) [compound 107, dihydrochloride]	> 5000 nM
NC(CCCCB(O)O)(CCc1ccccn1)C(=O)O (stereo not shown) [compound 116, dihydrochloride]	2000 to 5000 nM
CC1(C(=O)O)CCN(CCC(N)(CCCCB(O)O)C(=O)O)CC1 (stereo not shown)	1000 to 2000 nM
N[C@](CCCCB(O)O)(CCN1CCC[C@H]1CO)C(=O)O	251 to 1000 nM
NC(CCCCB(O)O)(CCN1CCC(CO)CC1)C(=O)O (stereo not shown)	251 to 1000 nM
CCC(O)C(N)(CCCCB(O)O)C(=O)O (stereo not shown) [compound 108, hydrochloride]	2000 to 5000 nM
N[C@](CCCCB(O)O)(CCN1Cc2ccccc2C[C@H]1CO)C(=O)O [compound 1, dihydrochloride]	251 to 1000 nM
NC(CCCCB(O)O)(CCN1CCN(c2ncccn2)CC1)C(=O)O (stereo not shown) [compound 17, trihydrochloride]	2000 to 5000 nM
CC(C)C(=O)NCCC(N)(CCCCB(O)O)C(=O)O (stereo not shown) [compound 120, hydrochloride]	2000 to 5000 nM
CN(CCc1ccccc1)CC[C@](N)(CCCCB(O)O)C(=O)O [compound 11, dihydrochloride]	0.1 to 250 nM
O=C(O)C(CCCCB(O)O)NCc1ccc(Cl)cc1 (stereo not shown) [compound 145, hydrochloride]	1000 to 2000 nM
COc1ccc(CCN(C)CC[C@](N)(CCCCB(O)O)C(=O)O)cc1OC [compound 6, dihydrochloride]	1000 to 2000 nM
CN1CCN(CC(N)(CCCCB(O)O)C(=O)O)CC1 (stereo not shown) [compound 80, trihydrochloride]	> 5000 nM
NC(CCCCB(O)O)(CCN1CCC(c2ccc(Cl)cc2)CC1)C(=O)O (stereo not shown) [compound 121, dihydrochloride]	251 to 1000 nM
NC(CCCCB(O)O)(CNCc1ccccc1)C(=O)O (stereo not shown)	> 5000 nM
NC(CCCCB(O)O)(CCCN1CCCCC1)C(=O)O (stereo not shown) [compound 147, dihydrochloride]	251 to 1000 nM
NC(CCCCB(O)O)(CCN1CCN(c2ccccc2)CC1)C(=O)O (stereo not shown) [compound 76, dihydrochloride]	> 5000 nM
CNC(CCCCB(O)O)(CC[C@@H]1CCCN1)C(=O)O (stereo partly shown) [compound 144, dihydrochloride]	0.1 to 250 nM
CCCCNCC(N)(CCCCB(O)O)C(=O)O (stereo not shown) [compound 86, dihydrochloride]	2000 to 5000 nM
COc1ccc(CC2(NCCC(N)(CCCCB(O)O)C(=O)O)CC2)cc1 (stereo not shown)	1000 to 2000 nM
N[C@](CCCCB(O)O)(CCN1CCSCC1)C(=O)O [compound 8, dihydrochloride]	2000 to 5000 nM
